Reference for the values: PubChem BioAssay (NCI)

System: HL-60(TB) leukemia
Method description: NCI tumour cell line growth inhibition, 48 h
Classify by measured TGI: criterion met if it is equal to or exceeds 10 µM, criterion not met if it is smaller.

# Compound, Class
rows = [
    ("CCOC(=O)c1c[nH]c(C(=O)OCC)c1-c1cccn1-c1ccccc1", "criterion met"),
]

Problem: API: above_or_equal(metric=TGI, cutoff=10 µM) for item COc1ccc(C(O)c2cc3c(N)c(C(=O)Nc4ccc(Cl)cc4)sc3nc2C)cc1 (stereo unspecified)
Result: criterion not met

Problem: API: above_or_equal(metric=TGI, cutoff=10 µM) for item CC(C)=CCc1cc2c(cc1O)C1=C(C(=O)C3=C(C1=O)S(=O)(=O)CCN3)C(C=C(C)C)O2 (stereo unspecified)
Result: criterion not met

Problem: API: above_or_equal(metric=TGI, cutoff=10 µM) for item CC(C)(C)N=CN1C=Cc2nc3ccccc3cc2C1
Result: criterion met

Problem: API: above_or_equal(metric=TGI, cutoff=10 µM) for item CC(CSC(=N)N)C(N)=O (stereo unspecified)
Result: criterion met

Problem: API: above_or_equal(metric=TGI, cutoff=10 µM) for item O=C1CC2OCC=C3CN4CCC56c7ccccc7N1C5C2C3CC46O (stereo unspecified)
Result: criterion met

Problem: API: above_or_equal(metric=TGI, cutoff=10 µM) for item C#Cc1cccc(Nc2ncnc3cc(NC(=O)CCl)ccc23)c1
Result: criterion met

Problem: API: above_or_equal(metric=TGI, cutoff=10 µM) for item CCOC(=O)CSc1cc(Cl)c(C)cc1S(=O)(=O)/N=C(/N=C/c1ccc([N+](=O)[O-])s1)NNC
Result: criterion met

Problem: API: above_or_equal(metric=TGI, cutoff=10 µM) for item N#C/C(=C\c1ccncc1)c1csc2ccccc12
Result: criterion met

Problem: API: above_or_equal(metric=TGI, cutoff=10 µM) for item CCOC(=O)N/N=C(/N)c1cccc(Br)c1
Result: criterion met

Problem: API: above_or_equal(metric=TGI, cutoff=10 µM) for item COc1ccc(Nc2nc3ccccc3n3cccc23)cc1OC
Result: criterion not met

Problem: API: above_or_equal(metric=TGI, cutoff=10 µM) for item COc1ccc(-n2c(CCC(=O)O)nc3c2C(=O)c2ccccc2C3=O)cc1
Result: criterion met

Problem: API: above_or_equal(metric=TGI, cutoff=10 µM) for item COC(=O)C(CC(C)C)NC(=O)C(NC(=O)c1ccc(-c2ccc(Cl)cc2Cl)o1)C(C)C (stereo unspecified)
Result: criterion met

Problem: API: above_or_equal(metric=TGI, cutoff=10 µM) for item O=[N+]([O-])c1ccc(C2=Nc3ccccc3S(=O)C(c3ccccc3)C2)cc1 (stereo unspecified)
Result: criterion met

Problem: API: above_or_equal(metric=TGI, cutoff=10 µM) for item CC(C)C1CNC(=O)C2(C=NC(C(C)C)CNC(=O)C3(C=N1)CCCO3)CCCO2 (stereo unspecified)
Result: criterion met

Problem: API: above_or_equal(metric=TGI, cutoff=10 µM) for item CC1=CC2C(C=C1)S(=O)(=O)N1CC21c1ccccc1 (stereo unspecified)
Result: criterion met

Problem: API: above_or_equal(metric=TGI, cutoff=10 µM) for item CC(C)(C)c1cc(C(=O)Nc2ccccc2C(=O)NCCN)cc(C(C)(C)C)c1
Result: criterion not met

Problem: API: above_or_equal(metric=TGI, cutoff=10 µM) for item COc1cc2cc(Oc3ccc(NC(=O)Nc4cc(C(F)(F)F)cc(C(F)(F)F)c4)cc3)c(C)nc2cc1OCCN1CCOCC1
Result: criterion not met

Problem: API: above_or_equal(metric=TGI, cutoff=10 µM) for item O=C1C(c2ccccc2)=C(c2ccccc2)C(c2ccc(Cc3ccc(C4=C(c5ccccc5)C(=O)C(c5ccccc5)=C4c4ccccc4)cc3)cc2)=C1c1ccccc1
Result: criterion met

Problem: API: above_or_equal(metric=TGI, cutoff=10 µM) for item Oc1ccc(Br)cc1C=Nc1cccc(C(F)(F)F)c1
Result: criterion met

Problem: API: above_or_equal(metric=TGI, cutoff=10 µM) for item O=C(Cc1ccccc1)NN1C(=O)C(Cl)C1c1ccccc1Cl (stereo unspecified)
Result: criterion met
